Collected IC50 values appear next to each entry.
# ASSAY SYSTEM: GnRH-R (membranes of human pituitary) (Homo sapiens)
# Construct: Tissue samples derived by autopsy from normal human pituitary (anterior lobe); from tissue; host or cells: normal human pituitary (anterior lobe), autopsy; membrane homogenates
# Sequence (P30968 whole entry): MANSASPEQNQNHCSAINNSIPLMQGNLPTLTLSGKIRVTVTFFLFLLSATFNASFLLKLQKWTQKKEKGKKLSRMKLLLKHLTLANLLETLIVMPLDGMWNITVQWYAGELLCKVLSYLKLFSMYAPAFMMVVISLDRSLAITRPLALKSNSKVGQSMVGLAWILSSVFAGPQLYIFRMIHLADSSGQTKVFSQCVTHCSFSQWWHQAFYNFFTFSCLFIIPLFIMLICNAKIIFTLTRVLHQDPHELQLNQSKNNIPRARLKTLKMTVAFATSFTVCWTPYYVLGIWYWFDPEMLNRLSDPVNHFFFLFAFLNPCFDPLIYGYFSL
# ASSAY REMARKS: Radioligand binding (ligand competition) assay, displacement of [125I]-[6D-Trp]-GnRH-I, human pituitary membranes
# ASSAY CONDITIONS: membranes of human pituitary; read-out: IC50 Values, inhibition of [125I]-[6D-Trp]-GnRH-I binding, Human Pituitary
Square brackets hold non-standard residues; d marks the D form. Peptide text beside a SMILES is read from it. * marks the point of attachment. X1 = C=CC1=C(C)c2cc3[nH]c(cc4nc(cc5[nH]c(cc1n2)c(C)c5CCC(=O)O)C(CCC(=O)*)=C4C)c(C)c3C=C; pGlu = O=C1CC[C@@H](C(=O)O)N1; Butyryl = CCCC(=O)*
Give the value in nM but do not write nM after it.

COMPOUND	IC50 (nM)
C=CC1=C(C)c2cc3[nH]c(cc4nc(cc5[nH]c(cc1n2)c(C)c5CCC(=O)O)C(CCC(=O)NCCCC[C@@H](NC(=O)[C@H](Cc1ccc(O)cc1)NC(=O)[C@H](CCCCNC(=O)CCC)NC(=O)[C@H](Cc1c[nH]c2ccccc12)NC(=O)[C@H](Cc1c[nH]cn1)NC(=O)[C@@H]1CCC(=O)N1)C(=O)N[C@@H](CC(C)C)C(=O)N[C@@H](CCCNC(=N)N)C(=O)N1CCC[C@H]1C(=O)NCC(N)=O)=C4C)c(C)c3C=C [compound 6, GnRH-I[^4Lys(Bu), ^6D-Lys(PpIX)]] ([pGlu]HWK(Butyryl)Y[dK](X1)LRPG-NH2)	42.3
CCCC(=O)NCCCC[C@H](NC(=O)[C@H](Cc1c[nH]c2ccccc12)NC(=O)[C@H](Cc1c[nH]cn1)NC(=O)[C@@H]1CCC(=O)N1)C(=O)N[C@@H](Cc1c[nH]cn1)C(=O)N[C@@H](CC(=O)OC)C(=O)N[C@@H](Cc1c[nH]c2ccccc12)C(=O)N[C@@H](CCCCN)C(=O)N1CCC[C@H]1C(=O)NCC(N)=O [compound 4, GnRH-III[^4Lys(Bu), ^6Asp(OMe)]]	7.27
CCCC(=O)NCCCC[C@H](NC(=O)[C@H](Cc1c[nH]c2ccccc12)NC(=O)[C@H](Cc1c[nH]cn1)NC(=O)[C@@H]1CCC(=O)N1)C(=O)N[C@@H](Cc1c[nH]cn1)C(=O)N[C@H](CCCCN)C(=O)N[C@@H](Cc1c[nH]c2ccccc12)C(=O)N[C@@H](Cc1ccc(O)cc1)C(=O)N1CCC[C@H]1C(=O)NCC(N)=O [compound 3, GnRH-II[^4Lys(Bu), ^6D-Lys]] ([pGlu]HWK(Butyryl)H[dK]WYPG-NH2)	5.56
C=CC1=C(C)c2cc3[nH]c(cc4nc(cc5[nH]c(cc1n2)c(C)c5CCC(=O)O)C(CCC(=O)NCCCC[C@@H](NC(=O)[C@H](Cc1c[nH]cn1)NC(=O)[C@H](CCCCNC(=O)CCC)NC(=O)[C@H](Cc1c[nH]c2ccccc12)NC(=O)[C@H](Cc1c[nH]cn1)NC(=O)[C@@H]1CCC(=O)N1)C(=O)N[C@@H](Cc1c[nH]c2ccccc12)C(=O)N[C@@H](Cc1ccc(O)cc1)C(=O)N1CCC[C@H]1C(=O)NCC(N)=O)=C4C)c(C)c3C=C [compound 7, GnRH-II[^4Lys(Bu), ^6D-Lys(PpIX)]] ([pGlu]HWK(Butyryl)H[dK](X1)WYPG-NH2)	79.4
C=CC1=C(C)c2cc3[nH]c(cc4nc(cc5[nH]c(cc1n2)c(C)c5CCC(=O)O)C(CCC(=O)NCCCC[C@@H](NC(=O)[C@H](Cc1ccc(O)cc1)NC(=O)[C@H](CO)NC(=O)[C@H](Cc1c[nH]c2ccccc12)NC(=O)[C@H](Cc1c[nH]cn1)NC(=O)[C@@H]1CCC(=O)N1)C(=O)N[C@@H](CC(C)C)C(=O)N[C@@H](CCCNC(=N)N)C(=O)N1CCC[C@H]1C(=O)NCC(N)=O)=C4C)c(C)c3C=C [compound 5, GnRH-I[^6D-Lys(PpIX)]]	36.3

Input: Name the reported IC50 value associated with the compound CCCC(=O)NCCCC[C@H](NC(=O)[C@H](Cc1c[nH]c2ccccc12)NC(=O)[C@H](Cc1c[nH]cn1)NC(=O)[C@@H]1CCC(=O)N1)C(=O)N[C@@H](Cc1ccc(O)cc1)C(=O)N[C@H](CCCCN)C(=O)N[C@@H](CC(C)C)C(=O)N[C@@H](CCCNC(=N)N)C(=O)N1CCC[C@H]1C(=O)NCC(N)=O [compound 2, GnRH-I[^4Lys(Bu), ^6D-Lys]] ([pGlu]HWK(Butyryl)Y[dK]LRPG-NH2)
Output: 9.7

Values were extracted from paper PMC6829278.
